- System: CLDN3/4 (endogenous on LS513 or MCF7 cells)
- Experiment Summary: FACS titration of labelled mAb on MCF7 cells (endogenous CLDN3/4+)
Recorded EC50, one value per entry.
Put down the number, then write its unit next to it.

-- ask Query EC50 for AB4 (antibody, V domains shown, full-length IgG (ExpiCHO)) VH: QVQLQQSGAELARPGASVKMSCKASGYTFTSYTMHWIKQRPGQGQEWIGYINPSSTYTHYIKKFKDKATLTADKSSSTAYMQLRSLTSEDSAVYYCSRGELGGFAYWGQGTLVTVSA VL: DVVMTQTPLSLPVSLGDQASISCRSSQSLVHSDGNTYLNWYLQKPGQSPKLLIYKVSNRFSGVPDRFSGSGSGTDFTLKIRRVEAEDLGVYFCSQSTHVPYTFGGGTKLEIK
-- reply 0.653 µM

-- ask Note down EC50 recorded for AB1-6 (antibody, V domains shown, humanized) VH: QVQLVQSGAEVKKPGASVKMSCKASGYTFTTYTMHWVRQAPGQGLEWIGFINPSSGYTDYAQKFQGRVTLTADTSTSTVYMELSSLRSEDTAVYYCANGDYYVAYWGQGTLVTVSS VL: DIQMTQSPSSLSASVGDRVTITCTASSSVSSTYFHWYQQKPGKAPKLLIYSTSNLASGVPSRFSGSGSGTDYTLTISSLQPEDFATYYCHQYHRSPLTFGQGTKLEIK
-- reply 5 µM

-- ask Return value of EC50 for input AB14 (antibody, V domains shown) VH: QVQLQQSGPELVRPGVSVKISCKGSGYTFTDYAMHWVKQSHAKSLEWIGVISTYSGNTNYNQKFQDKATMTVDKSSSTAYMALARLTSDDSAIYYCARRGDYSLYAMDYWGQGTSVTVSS VL: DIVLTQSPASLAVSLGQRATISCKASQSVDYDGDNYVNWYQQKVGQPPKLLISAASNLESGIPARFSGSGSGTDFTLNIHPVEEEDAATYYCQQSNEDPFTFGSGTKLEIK , no commentary.
-- reply 0.546 µM

-- ask Identify measured EC50 corresponding to AB19 (antibody, V domains shown) VH: EVQLQQSGPELVKPGGSMKISCKASGYSFTGYTMNWVKRSHGKNLEWIGLINPYNGVTTYNQNFKGKATLAVDKSSSTAYMELLGLTSEDSAVYYCTRDPLYYGYRDSTMDYWGQGTSVTVSS VL: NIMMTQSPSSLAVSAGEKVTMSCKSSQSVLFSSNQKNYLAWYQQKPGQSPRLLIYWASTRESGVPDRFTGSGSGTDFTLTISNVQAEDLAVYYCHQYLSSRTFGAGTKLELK
-- reply 5 µM

-- ask Please report EC50 for the following binder: AB17 (antibody, V domains shown) VH: QVQLQQSGAELAKPGASVKMSCKASGYTFTGYWMHWVKQRPGQGLEWLGYINPSTGYTESNQKFKDKATLTADKSSTTAYMQLRSLTPEDSAVYYCAREGITTVLVDYWGQGTTLTVSS VL: QIVLTQSPAIMSASLGERVTMTCTASSSVSSSYLHWYQQKPGSSPKLWIYSTSNLASGVPARFSGSGSGTSYSLTISSMEAEDAATYYCHQYHRSPPTFGAGTKLELK
-- reply 5 µM

Cited source: patent US20230049752A1
